Value source: paper PMC13494018

target: VTCN1, Q7Z7D3
Sequence (Q7Z7D3 whole entry): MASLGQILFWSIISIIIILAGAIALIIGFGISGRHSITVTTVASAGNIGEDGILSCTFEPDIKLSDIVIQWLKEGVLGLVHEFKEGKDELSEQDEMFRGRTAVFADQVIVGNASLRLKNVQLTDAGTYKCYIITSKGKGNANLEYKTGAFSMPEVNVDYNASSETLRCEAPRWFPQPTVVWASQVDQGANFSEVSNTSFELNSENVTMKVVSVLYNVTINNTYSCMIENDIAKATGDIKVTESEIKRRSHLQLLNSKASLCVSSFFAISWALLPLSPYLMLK

>  <Binder>
design_607_777643b9-bd23-49d1-80ae-2b1434974efa_1871_dldesign_0_cycle1_af2pred (protein) DMKEEAKKVAKEAKEVAKKVYELDPAKGSELSAKIHEAEALVKHPKFAEEGLKELKETLKKAKELLKKLE

>  <binding in a display sort>
not found (inactive)

$$$$
>  <Binder>
design_604_3e0b3014-b333-46f1-8adc-d7f0bf8048fa_818_dldesign_0_cycle1_af2pred (protein) EEVEKKSEEVKKLLEEGAKTTTIDAQLAASEAVELAEELMKKDPEKGLKVAEVVLKEAEKLLKANPGVGELTIKRAEKVIKRAKE

>  <binding in a display sort>
not found (inactive)

$$$$
>  <Binder>
design_602_0a1f3d3d-7d26-454b-9b34-ebe8ef9bc7d4_1736_dldesign_0_cycle1_af2pred (protein) DLKEKVEKAEKILKKRKEKLEKAKEKGPKEAKKEAALAKEQMENLIEALKKILEEAKDDPETKAKAEKVIEEAKKLKEEAEKLEKE

>  <binding in a display sort>
not found (inactive)

$$$$
>  <Binder>
design_597_f3dcd2b3-c7aa-4b15-88bc-bbb8d01a18cd_2012_dldesign_0_cycle1_af2pred (protein) AEAKKEAAKLSEEAAELAAEAWLKAKKAKPEEAEKYKKAAEYFKEAIKILQAGEDLEKAKALYEKGKALYEEA

>  <binding in a display sort>
not found (inactive)

$$$$
>  <Binder>
design_609_7ee6ce64-4629-41e8-bcb4-ba0da017284d_2235_dldesign_0_cycle1_af2pred (protein) MKAKEEAEKKVEEVVEKGEKKVEEMKGLTAEEAEKVRNEIILEGQEVAAEAKKVDPEVGKKGFEKFRKVGEKAEKAVEEVK

>  <binding in a display sort>
not found (inactive)

$$$$
>  <Binder>
design_603_0b98da89-d791-4423-9b2d-fd1b7292da18_1568_dldesign_0_cycle1_af2pred (protein) DEELKKEAKEEIKKAAEKGIAAAKAGNILEAQFYAVEAREIGREYAKKIKNKELAKEVKEYAKKQAEKIRAEAAKVLAA

>  <binding in a display sort>
not found (inactive)

$$$$
>  <Binder>
design_600_24101276-ad9d-4944-b73e-53bb160363ad_2105_dldesign_0_cycle1_af2pred (protein) NMEEAKKLLKETEKAAKKAVEIAGEEAKPAAEKAIKVAEKFLKYGDVEALKDILAATKAYLAKVEAEKAAAA

>  <binding in a display sort>
not found (inactive)

$$$$
>  <Binder>
design_599_7ce25d4d-e004-4b84-a16f-baf856d943ab_1925_dldesign_0_cycle1_af2pred (protein) AQAVLDEAKKAADKAIALANQAIALAKTDLAAGKAKMEEALEELTEADYLADKAAKAGATEEAKKVRDKAKAAIDAARATIKAA

>  <binding in a display sort>
not found (inactive)

$$$$
>  <Binder>
design_608_fd41b8f9-4da9-4c78-93ec-aaa316ed4933_1455_dldesign_0_cycle1_af2pred (protein) HMSELTKKTSDVISEAVKTSREAVKEAEKKDPALGEKLKEFYTKALLDAQDGDPFKGATELLKKAKADLAAVKAS

>  <binding in a display sort>
not found (inactive)

$$$$
>  <Binder>
design_600_24101276-ad9d-4944-b73e-53bb160363ad_1891_dldesign_0_cycle1_af2pred (protein) GLEEEKKAVEEQKKKVEETGKKALEMAKSGEKAEEGLESLKKLIEETKEFAKKSKLKALAAEVTQLALEKLSEAKFELSKSKA

>  <binding in a display sort>
not found (inactive)

$$$$
